- testedOn: ABL1 (Homo sapiens)
- Sequence (P00519 whole entry): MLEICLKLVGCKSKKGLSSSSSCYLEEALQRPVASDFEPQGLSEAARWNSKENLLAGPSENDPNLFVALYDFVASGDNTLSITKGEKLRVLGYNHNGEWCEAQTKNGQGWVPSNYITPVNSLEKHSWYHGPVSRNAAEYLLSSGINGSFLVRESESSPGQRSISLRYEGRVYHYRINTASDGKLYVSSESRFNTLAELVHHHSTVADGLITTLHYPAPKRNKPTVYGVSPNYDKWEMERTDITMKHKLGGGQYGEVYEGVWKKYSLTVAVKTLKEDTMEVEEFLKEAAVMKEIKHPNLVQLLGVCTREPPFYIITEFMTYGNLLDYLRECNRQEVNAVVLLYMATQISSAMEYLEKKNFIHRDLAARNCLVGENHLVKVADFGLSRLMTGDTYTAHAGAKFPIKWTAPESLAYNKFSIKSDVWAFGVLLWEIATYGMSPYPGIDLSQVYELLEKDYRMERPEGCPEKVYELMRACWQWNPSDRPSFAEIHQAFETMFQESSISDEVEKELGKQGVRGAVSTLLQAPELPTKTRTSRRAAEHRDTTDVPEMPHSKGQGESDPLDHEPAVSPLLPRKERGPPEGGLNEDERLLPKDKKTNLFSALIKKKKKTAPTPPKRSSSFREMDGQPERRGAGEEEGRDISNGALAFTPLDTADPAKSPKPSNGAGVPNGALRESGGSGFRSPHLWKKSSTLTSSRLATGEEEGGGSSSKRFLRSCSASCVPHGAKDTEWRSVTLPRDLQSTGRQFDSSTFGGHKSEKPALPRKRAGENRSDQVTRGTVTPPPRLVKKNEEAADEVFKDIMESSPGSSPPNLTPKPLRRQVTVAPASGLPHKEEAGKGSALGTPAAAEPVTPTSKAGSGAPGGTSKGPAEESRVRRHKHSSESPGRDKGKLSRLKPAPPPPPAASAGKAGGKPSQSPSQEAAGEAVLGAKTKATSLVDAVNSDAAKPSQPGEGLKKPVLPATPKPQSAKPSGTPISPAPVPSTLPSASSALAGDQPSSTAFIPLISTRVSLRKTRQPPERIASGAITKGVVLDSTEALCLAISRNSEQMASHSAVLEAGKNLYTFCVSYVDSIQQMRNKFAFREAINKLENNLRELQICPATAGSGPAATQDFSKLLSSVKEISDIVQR
- testSummary: HotSpot in vitro kinase radiometric assay
- Format: biochemical
- Design: purchased Reaction Biology (HotSpot contract assay)
- statedConditions: ABL1; 10uM; ATP 40 uM; Data 1, Data 2; read-out: % Enzyme Activity (relative to DMSO controls)
endpointName: remaining activity at 10 µM (%)
The reply should be a number in %, with the unit left off.

A selection of reference data follows.
CCNC(=O)c1noc(-c2cc(Cl)c(O)cc2O)c1-c1ccc(OC)cc1	96
CCc1cc(-c2[nH]nc(C)c2-c2ccc3c(c2)OCCO3)c(O)cc1O	80
CC(C)c1cc(C(=O)N2Cc3ccc(CN4CCN(C)CC4)cc3C2)c(O)cc1O	105
C[C@@H]1C[C@H]2O[C@@H]2/C=C\C=C\C(=O)Cc2c(Cl)c(O)cc(O)c2C(=O)O1	106

Kindly review the next compound as well.
Here COC1=C2C[C@@H](C)C[C@H](OC)[C@H](O)[C@@H](C)/C=C(\C)[C@H](OC(N)=O)[C@@H](OC)/C=C\C=C(/C)C(=O)NC(=CC1=O)C2=O was tested on ABL1 (Homo sapiens), and its remaining activity at 10 µM came to 100
